The measured values listed here are drawn from ChEMBL document CHEMBL1141332.

test system: NCI-H522; test: Cytotoxicity against human NCI-H522 cells; assay type: functional; conditions: read-out: Log TGI (converted)
experimental endpoint: TGI (µM)

1. CC(=O)O[C@@H]1C[C@H]2[C@]3(C)CC[C@H]4C(C)(C)CCC[C@]4(C)[C@H]3C[C@H](O)[C@]2(C)[C@@H](C=O)[C@@H]1C(C)=O [SCALARHERBACIN A] : 3.72
2. CC1OC(=O)[C@H]2[C@H]1[C@@H](O)C[C@H]1[C@]3(C)CC[C@H]4C(C)(C)CCC[C@]4(C)[C@H]3C[C@@H](O)[C@]21C (some centres undefined) : 38.9
3. CC(=O)C1=CC[C@H]2[C@]3(C)CC[C@H]4C(C)(C)CCC[C@]4(C(=O)O)[C@H]3CC(=O)[C@]2(C)[C@H]1C=O : 4.17
4. CC(=O)O[C@H]1C[C@H]2[C@@](C)(CC[C@H]3C(C)(C)CCC[C@@]32CO)[C@@H]2CC=C(C(C)=O)[C@H](C=O)[C@@]12C : 2.57

----------
test system: EKVX; assay: Cytotoxicity against human EKVX cells; type: functional; details: read-out: Log LC50 (the source's name) (converted)
The following compounds are shown together with reported CC50 values.
experimental endpoint: CC50 (µM)

1. CC(=O)O[C@@H]1C[C@H]2[C@]3(C)CC[C@H]4C(C)(C)CCC[C@]4(C)[C@H]3C[C@H](O)[C@]2(C)[C@@H](C=O)[C@@H]1C(C)=O : 5.75
2. CC(=O)O[C@H]1C[C@H]2[C@@](C)(CC[C@H]3C(C)(C)CCC[C@@]32CO)[C@@H]2CC=C(C(C)=O)[C@H](C=O)[C@@]12C : 4.9
3. CC(=O)C1=CC[C@H]2[C@]3(C)CC[C@H]4C(C)(C)CCC[C@]4(C(=O)O)[C@H]3CC(=O)[C@]2(C)[C@H]1C=O : 25.1
4. CC1OC(=O)[C@H]2[C@H]1[C@@H](O)C[C@H]1[C@]3(C)CC[C@H]4C(C)(C)CCC[C@]4(C)[C@H]3C[C@@H](O)[C@]21C (some centres undefined) : 89.1

----------
system: SF-268; assay: Cytotoxicity against human SF268 cells; type: functional
experimental endpoint: GI50 (nM)

1. CC1OC(=O)[C@H]2[C@H]1[C@@H](O)C[C@H]1[C@]3(C)CC[C@H]4C(C)(C)CCC[C@]4(C)[C@H]3C[C@@H](O)[C@]21C (some centres undefined) : 22400
2. CC(=O)O[C@@H]1C[C@H]2[C@]3(C)CC[C@H]4C(C)(C)CCC[C@]4(C)[C@H]3C[C@H](O)[C@]2(C)[C@@H](C=O)[C@@H]1C(C)=O : 1450
3. CC(=O)C1=CC[C@H]2[C@]3(C)CC[C@H]4C(C)(C)CCC[C@]4(C(=O)O)[C@H]3CC(=O)[C@]2(C)[C@H]1C=O : 1200
4. CC(=O)O[C@H]1C[C@H]2[C@@](C)(CC[C@H]3C(C)(C)CCC[C@@]32CO)[C@@H]2CC=C(C(C)=O)[C@H](C=O)[C@@]12C : 447

----------
system: RXF 393; assay: Cytotoxicity against human RXF393 cells; type: functional
The following molecules are shown together with reported GI50 values.
experimental endpoint: GI50 (nM)

1) CC(=O)O[C@@H]1C[C@H]2[C@]3(C)CC[C@H]4C(C)(C)CCC[C@]4(C)[C@H]3C[C@H](O)[C@]2(C)[C@@H](C=O)[C@@H]1C(C)=O : 1150
2) CC(=O)O[C@H]1C[C@H]2[C@@](C)(CC[C@H]3C(C)(C)CCC[C@@]32CO)[C@@H]2CC=C(C(C)=O)[C@H](C=O)[C@@]12C : 295
3) CC(=O)C1=CC[C@H]2[C@]3(C)CC[C@H]4C(C)(C)CCC[C@]4(C(=O)O)[C@H]3CC(=O)[C@]2(C)[C@H]1C=O : 1170
4) CC1OC(=O)[C@H]2[C@H]1[C@@H](O)C[C@H]1[C@]3(C)CC[C@H]4C(C)(C)CCC[C@]4(C)[C@H]3C[C@@H](O)[C@]21C (some centres undefined) : 14800
